Assignment: determine reported cell number in HSV-1-infected wells for the given molecules.
System: A549 infected with HSV-1
Assay: cell number in HSV-1-infected wells relative to infected DMSO wells (H2B-RFP signal); higher = more surviving cells (uninfected or antiviral-protected wells give about 200%; low = toxicity)
Conditions: 10 µM; 48 h; MOI: 0.1
Where a name gives a salt, the structure may show the parent alone. Whole data set: some 1,700 compounds, median “cell number in HSV-1-infected wells relative to infected DMSO wells (H2B-RFP signal)” near 100, cut for the highest 2% near 140. The list comes from a sample in which the highest values are over-represented; it also holds close analogues and randomly drawn compounds.
Entry rule: numbers only, all in %.

Lookup: Supply recorded cell number in HSV-1-infected wells for "Cc1cccc(C)c1N(CC(=O)Nc1ccc(-c2ncon2)cc1)C(=O)C1CCS(=O)(=O)CC1" here.
Found: 214

Lookup: Supply recorded cell number in HSV-1-infected wells for CC1(C)S[C@@H]2[C@H](NC(=O)COc3ccccc3)C(=O)N2[C@H]1C(=O)O [Penicillin V potassium salt] here.
Found: 86.4

Lookup: Supply recorded cell number in HSV-1-infected wells for "C[C@@H](c1nc(-c2ccc(C#N)cc2)cs1)[C@](O)(Cn1cncn1)c1cc(F)ccc1F" here.
Found: 99.7

Lookup: Supply recorded cell number in HSV-1-infected wells for "Cc1ccc(C(=O)N(CCCN)[C@@H](c2nc3cc(Cl)ccc3c(=O)n2Cc2ccccc2)C(C)C)cc1" here.
Found: 12.9

Lookup: Supply recorded cell number in HSV-1-infected wells for Cc1cc(C)cc(OCC2CNC(=O)O2)c1 (centres undefined) here.
Found: 132

Lookup: Supply recorded cell number in HSV-1-infected wells for O=C([O-])c1ccccc1.[Na+] [Sodium benzoate] here.
Found: 83.2

Lookup: Supply recorded cell number in HSV-1-infected wells for "O=C(O)C(=O)O.[NH-][C@@H]1CCCC[C@H]1[NH-].[Pt+2]" here.
Found: 64.1

Lookup: Supply recorded cell number in HSV-1-infected wells for "Cc1c(F)cc(C(=O)NC2CC2)cc1-c1ccc(C(=O)NCC(C)(C)C)cn1" here.
Found: 145

Lookup: Supply recorded cell number in HSV-1-infected wells for CCCc1ncc(C[n+]2ccccc2C)c(N)n1 [Amprolium HCl] here.
Found: 105

----------
Test system: A549 infected with HSV-1
Assay: cell number in HSV-1-infected wells relative to infected DMSO wells (H2B-RFP signal); higher = more surviving cells (uninfected or antiviral-protected wells give about 200%; low = toxicity)
Details: 10 µM; 48 h; MOI: 0.1
Where a name gives a salt, the structure may show the parent alone. The full ranking holds about 1,700 compounds; the median of “cell number in HSV-1-infected wells relative to infected DMSO wells (H2B-RFP signal)” is about 100, and the highest 2% start at about 140. Many of the other results were omitted from the sample, so the highest values are more common in it than they were.
RESULT TYPE: cell number in HSV-1-infected wells (%)
Entry rule: numbers only, all in %.

Lookup: Provide measured cell number in HSV-1-infected wells on A549 infected with HSV-1 for CC(C)[C@H](N)C(=O)OCCOCn1cnc2c(=O)nc(N)[nH]c21 [Valaciclovir HCl] please.
Found: 167

Lookup: Provide measured cell number in HSV-1-infected wells on A549 infected with HSV-1 for CC(C)(C)C(=O)OCOP(=O)(COCCn1cnc2c(N)ncnc21)OCOC(=O)C(C)(C)C [Adefovir Dipivoxil] please.
Found: 64.6

Lookup: Provide measured cell number in HSV-1-infected wells on A549 infected with HSV-1 for CNC(=O)c1cnn(-c2nc(N)c3ncn([C@@H]4O[C@H](CO)[C@@H](O)[C@H]4O)c3n2)c1 [Regadenoson] please.
Found: 128

Lookup: Provide measured cell number in HSV-1-infected wells on A549 infected with HSV-1 for CN(C)C(=O)COC(=O)Cc1ccc(OC(=O)c2ccc(NC(=N)N)cc2)cc1 [Camostat Mesilate] please.
Found: 124

Lookup: Provide measured cell number in HSV-1-infected wells on A549 infected with HSV-1 for COCC[n+]1c2c(n(Cc3cnccn3)c1C)C(=O)c1ccccc1C2=O [YM155 (Sepantronium Bromide)] please.
Found: 9.16

Lookup: Provide measured cell number in HSV-1-infected wells on A549 infected with HSV-1 for C[C@H](Cn1cnc2c(N)ncnc21)OCP(=O)(O)O [Tenofovir] please.
Found: 79.9

Lookup: Provide measured cell number in HSV-1-infected wells on A549 infected with HSV-1 for COc1c(N2C[C@@H]3CCCN[C@@H]3C2)c(F)cc2c(=O)c(C(=O)O)cn(C3CC3)c12 [Moxifloxacin] please.
Found: 145

Lookup: Provide measured cell number in HSV-1-infected wells on A549 infected with HSV-1 for CC(=O)SCC(Cc1ccccc1)C(=O)NCC(=O)OCc1ccccc1 (configuration not stated) [Racecadotril] please.
Found: 96.3

Lookup: Provide measured cell number in HSV-1-infected wells on A549 infected with HSV-1 for COc1cc2nccc(Oc3ccc(NC(=O)NC4CC4)c(Cl)c3)c2cc1C(N)=O [lenvatinib Mesylate] please.
Found: 144

Lookup: Provide measured cell number in HSV-1-infected wells on A549 infected with HSV-1 for Cc1c(C(C)C)c(=O)n(-c2ccccc2)n1C [Propyphenazone (4-Isopropylantipyrine)] please.
Found: 78.4

Lookup: Provide measured cell number in HSV-1-infected wells on A549 infected with HSV-1 for COc1c(N2CCNC(C)C2)c(F)cc2c(=O)c(C(=O)O)cn(C3CC3)c12 (configuration not stated) [Gatifloxacin] please.
Found: 108

Lookup: Provide measured cell number in HSV-1-infected wells on A549 infected with HSV-1 for Nc1nc2c(ncn2COCCO)c(=O)[nH]1 [Aciclovir] please.
Found: 225

Lookup: Provide measured cell number in HSV-1-infected wells on A549 infected with HSV-1 for CC(C)N(CCCCOCC(=O)NS(C)(=O)=O)c1cnc(-c2ccccc2)c(-c2ccccc2)n1 [Selexipag] please.
Found: 80.8

Lookup: Provide measured cell number in HSV-1-infected wells on A549 infected with HSV-1 for CCCCCCCCN=c1ccn(CCCCCCCCCCn2ccc(=NCCCCCCCC)cc2)cc1 [Octenidine Dihydrochloride] please.
Found: 14.6

Lookup: Provide measured cell number in HSV-1-infected wells on A549 infected with HSV-1 for Cc1c(NC(=O)c2cccnc2)c(=O)n(-c2ccccc2)n1C [Nifenazone] please.
Found: 145

Lookup: Provide measured cell number in HSV-1-infected wells on A549 infected with HSV-1 for COc1c(N2C[C@@H]3CCCN[C@@H]3C2)c(F)cc2c(=O)c(C(=O)O)cn(C3CC3)c12 [Moxifloxacin HCl] please.
Found: 87.9

Lookup: Provide measured cell number in HSV-1-infected wells on A549 infected with HSV-1 for COc1cc2nccc(Oc3ccc(NC(=O)C4(C(=O)Nc5ccc(F)cc5)CC4)cc3)c2cc1OC [Cabozantinib malate (XL184)] please.
Found: 90.5

Lookup: Provide measured cell number in HSV-1-infected wells on A549 infected with HSV-1 for CCC1(c2c[nH]cn2)Cc2ccccc2C1 [Atipamezole hydrochloride] please.
Found: 95.8

Lookup: Provide measured cell number in HSV-1-infected wells on A549 infected with HSV-1 for C=C1[C@H](CO)[C@@H](O)C[C@@H]1n1cnc2c(=O)[nH]c(N)nc21 [Entecavir] please.
Found: 130

Lookup: Provide measured cell number in HSV-1-infected wells on A549 infected with HSV-1 for CC(C)(CO)C(O)C(=O)NCCC(=O)O [Calcium D-Panthotenate] please.
Found: 118

Lookup: Provide measured cell number in HSV-1-infected wells on A549 infected with HSV-1 for O=C1CC[C@@H](C(=O)N2CSC[C@H]2C(=O)O)N1 [Pidotimod] please.
Found: 82.1

Lookup: Provide measured cell number in HSV-1-infected wells on A549 infected with HSV-1 for CO/N=C(\C(=O)N[C@@H]1C(=O)N2C(C(=O)O)=CCS[C@H]12)c1csc(N)n1 [Ceftizoxime] please.
Found: 136

Lookup: Provide measured cell number in HSV-1-infected wells on A549 infected with HSV-1 for N=C1CCCN1Cc1[nH]c(=O)[nH]c(=O)c1Cl [Tipiracil hydrochloride] please.
Found: 107

Lookup: Provide measured cell number in HSV-1-infected wells on A549 infected with HSV-1 for CCN1CC(CCN2CCOCC2)C(c2ccccc2)(c2ccccc2)C1=O (configuration not stated) [Doxapram HCl] please.
Found: 91.3

Lookup: Provide measured cell number in HSV-1-infected wells on A549 infected with HSV-1 for CN1CCOC(c2ccccc2)c2ccccc2C1 (configuration not stated) [Nefopam HCl] please.
Found: 120

Lookup: Provide measured cell number in HSV-1-infected wells on A549 infected with HSV-1 for CCOC(=O)CCC(=O)O[C@H]1[C@H](O[C@@H]2[C@@H](C)[C@H](O[C@H]3C[C@@](C)(OC)[C@@H](O)[C@H](C)O3)[C@@H](C)C(=O)O[C@H](CC)[C@@](C)(O)[C@H](O)[C@@H](C)C(=O)[C@H](C)C[C@@]2(C)O)O[C@H](C)C[C@@H]1N(C)C [Erythromycin Ethylsuccinate] please.
Found: 118

Lookup: Provide measured cell number in HSV-1-infected wells on A549 infected with HSV-1 for C=C1[C@H](CO)[C@@H](O)C[C@@H]1n1cnc2c(=O)[nH]c(N)nc21 [Entecavir Hydrate] please.
Found: 150

Lookup: Provide measured cell number in HSV-1-infected wells on A549 infected with HSV-1 for CNCC[C@H](Oc1cccc2ccccc12)c1cccs1 [Duloxetine] please.
Found: 121

Lookup: Provide measured cell number in HSV-1-infected wells on A549 infected with HSV-1 for C[C@H]1CNCCCN1S(=O)(=O)c1cccc2cncc(F)c12 [Ripasudil (K-115) hydrochloride dihydrate] please.
Found: 114

Lookup: Provide measured cell number in HSV-1-infected wells on A549 infected with HSV-1 for CNC1CCCN(c2c(F)cc3c(=O)c(C(=O)O)cn(C4CC4)c3c2OC)C1 (configuration not stated) [Balofloxacin] please.
Found: 117

Lookup: Provide measured cell number in HSV-1-infected wells on A549 infected with HSV-1 for CCC1(c2c[nH]cn2)Cc2ccccc2C1 [Atipamezole] please.
Found: 103

Lookup: Provide measured cell number in HSV-1-infected wells on A549 infected with HSV-1 for Nc1nc2c(ncn2COC(CO)CO)c(=O)[nH]1 [Ganciclovir] please.
Found: 192
